The reader will find MIC measurements below, all made with Candida albicans ATCC 10231.
Response body: numeric value in µM, unit text excluded.

Observe how each entry below is paired with its result.
>  <SMILES DATA>
CC[C@H](C)[C@H](NC(=O)CNC(=O)[C@H](CO)NC(=O)[C@H](CC(C)C)NC(=O)[C@@H](NC(=O)[C@H](CCCN=C(N)N)NC(=O)CNC(=O)[C@@H](NC(=O)[C@H](CC(C)C)NC(=O)[C@@H]1CCCN1C(=O)[C@H](CC(C)C)NC(=O)[C@@H](N)Cc1ccccc1)[C@@H](C)CC)C(C)C)C(=O)N[C@@H](C)C(N)=O

>  <UNIT TAG>
µM

>  <OBSERVED MEASUREMENT>
40

$$$$
>  <SMILES DATA>
CC[C@H](C)[C@H](NC(=O)[C@H](CCC(N)=O)NC(=O)[C@@H](N)CCCN=C(N)N)C(=O)N[C@@H](CCCN=C(N)N)C(=O)N[C@@H](CCCN=C(N)N)C(=O)N[C@@H](Cc1c[nH]c2ccccc12)C(=O)N[C@@H](Cc1c[nH]c2ccccc12)C(=O)N[C@@H](CCC(N)=O)C(=O)N[C@@H](Cc1c[nH]c2ccccc12)C(N)=O

>  <UNIT TAG>
µM

>  <OBSERVED MEASUREMENT>
50

$$$$
>  <SMILES DATA>
CC[C@H](C)[C@H](NC(=O)[C@H](CCCCN)NC(=O)[C@H](Cc1c[nH]c2ccccc12)NC(=O)[C@@H](N)CC(C)C)C(=O)NCC(=O)N[C@@H](Cc1c[nH]c2ccccc12)C(=O)N[C@@H](CCCCN)C(=O)N[C@H](C(=O)N[C@@H](Cc1c[nH]c2ccccc12)C(=O)N[C@@H](CCCN=C(N)N)C(=O)N[C@H](C(=O)NCC(=O)N[C@@H](Cc1c[nH]c2ccccc12)C(=O)N[C@@H](CC(N)=O)C(=O)N[C@@H](Cc1c[nH]c2ccccc12)C(=O)N[C@@H](CCCN=C(N)N)C(=O)O)C(C)C)[C@@H](C)CC

>  <UNIT TAG>
µM

>  <OBSERVED MEASUREMENT>
29.3

$$$$

Now consider the entry below.
IN: Entry under review: "CC[C@H](C)[C@H](NC(=O)[C@H](C)NC(=O)[C@H](CO)NC(=O)[C@@H](NC(=O)[C@@H](NC(=O)[C@@H](NC(=O)[C@H](Cc1cnc[nH]1)NC(=O)[C@H](CC(C)C)NC(=O)[C@H](CC(=O)O)NC(=O)[C@@H](N)CCCCN)[C@@H](C)O)C(C)C)C(C)C)C(=O)N[C@@H](CC(C)C)C(=O)N[C@@H](CCC(N)=O)C(=O)N[C@@H](C)C(=O)N[C@@H](CC(C)C)C(N)=O" . Reported MIC?
OUT: 33.2
